# test conditions: in n-butyl acetate, 298.15 K
attribute measured: solubility (mole fraction)
# answer = number (no unit)

# input Determine its reported solubility (mole fraction): CSc1nc2cc(Oc3cccc(Cl)c3Cl)c(Cl)cc2[nH]1
# output 0.0263

====

# test conditions: in ethanol, 303.15 K
attribute measured: solubility (mole fraction)

# input Determine its reported solubility (mole fraction): CSc1nc2cc(Oc3cccc(Cl)c3Cl)c(Cl)cc2[nH]1
# output 0.0181

====

# test conditions: in n-pentyl acetate, 298.15 K
attribute measured: solubility (mole fraction)
# answer = number (no unit)

# input Determine its reported solubility (mole fraction): CSc1nc2cc(Oc3cccc(Cl)c3Cl)c(Cl)cc2[nH]1
# output 0.0319

====

# test conditions: in ethyl formate, 318.15 K
attribute measured: solubility (mole fraction)
# answer = number (no unit)

# input Determine its reported solubility (mole fraction): CSc1nc2cc(Oc3cccc(Cl)c3Cl)c(Cl)cc2[nH]1
# output 0.0258

====

# test conditions: in isobutanol, 278.15 K
attribute measured: solubility (mole fraction)
# answer = number (no unit)

# input Determine its reported solubility (mole fraction): CSc1nc2cc(Oc3cccc(Cl)c3Cl)c(Cl)cc2[nH]1
# output 0.00455

====

# test conditions: in ethanol, 318.15 K
attribute measured: solubility (mole fraction)
# answer = number (no unit)

# input Determine its reported solubility (mole fraction): CSc1nc2cc(Oc3cccc(Cl)c3Cl)c(Cl)cc2[nH]1
# output 0.0288

====

# test conditions: in acetonitrile, 308.15 K
attribute measured: solubility (mole fraction)
# answer = number (no unit)

# input Determine its reported solubility (mole fraction): CSc1nc2cc(Oc3cccc(Cl)c3Cl)c(Cl)cc2[nH]1
# output 0.00264

====

# test conditions: in isobutanol, 283.15 K
attribute measured: solubility (mole fraction)
# answer = number (no unit)

# input Determine its reported solubility (mole fraction): CSc1nc2cc(Oc3cccc(Cl)c3Cl)c(Cl)cc2[nH]1
# output 0.00558

====

# test conditions: in n-pentyl acetate, 288.15 K
attribute measured: solubility (mole fraction)
# answer = number (no unit)

# input Determine its reported solubility (mole fraction): CSc1nc2cc(Oc3cccc(Cl)c3Cl)c(Cl)cc2[nH]1
# output 0.0241

====

# test conditions: in n-propyl acetate, 308.15 K
attribute measured: solubility (mole fraction)

# input Determine its reported solubility (mole fraction): CSc1nc2cc(Oc3cccc(Cl)c3Cl)c(Cl)cc2[nH]1
# output 0.0299

====

# test conditions: in n-butanol, 298.15 K
attribute measured: solubility (mole fraction)

# input Determine its reported solubility (mole fraction): CSc1nc2cc(Oc3cccc(Cl)c3Cl)c(Cl)cc2[nH]1
# output 0.0333

====

# test conditions: in 1,2-dichloroethane, 303.15 K
attribute measured: solubility (mole fraction)
# answer = number (no unit)

# input Determine its reported solubility (mole fraction): CSc1nc2cc(Oc3cccc(Cl)c3Cl)c(Cl)cc2[nH]1
# output 0.00429

====

# test conditions: in methanol, 293.15 K
attribute measured: solubility (mole fraction)
# answer = number (no unit)

# input Determine its reported solubility (mole fraction): CSc1nc2cc(Oc3cccc(Cl)c3Cl)c(Cl)cc2[nH]1
# output 0.00691

====

# test conditions: in n-butanol, 278.15 K
attribute measured: solubility (mole fraction)

# input Determine its reported solubility (mole fraction): CSc1nc2cc(Oc3cccc(Cl)c3Cl)c(Cl)cc2[nH]1
# output 0.0221

====

# test conditions: in isobutanol, 308.15 K
attribute measured: solubility (mole fraction)
# answer = number (no unit)

# input Determine its reported solubility (mole fraction): CSc1nc2cc(Oc3cccc(Cl)c3Cl)c(Cl)cc2[nH]1
# output 0.0161

====

# test conditions: in methanol, 308.15 K
attribute measured: solubility (mole fraction)
# answer = number (no unit)

# input Determine its reported solubility (mole fraction): CSc1nc2cc(Oc3cccc(Cl)c3Cl)c(Cl)cc2[nH]1
# output 0.0121

====

# test conditions: in ethylene glycol, 298.15 K
attribute measured: solubility (mole fraction)
# answer = number (no unit)

# input Determine its reported solubility (mole fraction): CSc1nc2cc(Oc3cccc(Cl)c3Cl)c(Cl)cc2[nH]1
# output 0.000934

====

# test conditions: in n-butyl acetate, 303.15 K
attribute measured: solubility (mole fraction)
# answer = number (no unit)

# input Determine its reported solubility (mole fraction): CSc1nc2cc(Oc3cccc(Cl)c3Cl)c(Cl)cc2[nH]1
# output 0.0298

====

# test conditions: in n-butyl acetate, 318.15 K
attribute measured: solubility (mole fraction)

# input Determine its reported solubility (mole fraction): CSc1nc2cc(Oc3cccc(Cl)c3Cl)c(Cl)cc2[nH]1
# output 0.0423

====

# test conditions: in ethyl formate, 303.15 K
attribute measured: solubility (mole fraction)
# answer = number (no unit)

# input Determine its reported solubility (mole fraction): CSc1nc2cc(Oc3cccc(Cl)c3Cl)c(Cl)cc2[nH]1
# output 0.0149

====

# test conditions: in ethylene glycol, 293.15 K
attribute measured: solubility (mole fraction)
# answer = number (no unit)

# input Determine its reported solubility (mole fraction): CSc1nc2cc(Oc3cccc(Cl)c3Cl)c(Cl)cc2[nH]1
# output 0.000714

====

# test conditions: in ethanol, 308.15 K
attribute measured: solubility (mole fraction)

# input Determine its reported solubility (mole fraction): CSc1nc2cc(Oc3cccc(Cl)c3Cl)c(Cl)cc2[nH]1
# output 0.0209

====

# test conditions: in ethanol, 278.15 K
attribute measured: solubility (mole fraction)

# input Determine its reported solubility (mole fraction): CSc1nc2cc(Oc3cccc(Cl)c3Cl)c(Cl)cc2[nH]1
# output 0.00727

====

# test conditions: in n-pentyl acetate, 318.15 K
attribute measured: solubility (mole fraction)
# answer = number (no unit)

# input Determine its reported solubility (mole fraction): CSc1nc2cc(Oc3cccc(Cl)c3Cl)c(Cl)cc2[nH]1
# output 0.0511

====

# test conditions: in n-pentyl acetate, 308.15 K
attribute measured: solubility (mole fraction)
# answer = number (no unit)

# input Determine its reported solubility (mole fraction): CSc1nc2cc(Oc3cccc(Cl)c3Cl)c(Cl)cc2[nH]1
# output 0.0407

====

# test conditions: in ethyl formate, 308.15 K
attribute measured: solubility (mole fraction)
# answer = number (no unit)

# input Determine its reported solubility (mole fraction): CSc1nc2cc(Oc3cccc(Cl)c3Cl)c(Cl)cc2[nH]1
# output 0.0177

====

# test conditions: in isobutanol, 303.15 K
attribute measured: solubility (mole fraction)
# answer = number (no unit)

# input Determine its reported solubility (mole fraction): CSc1nc2cc(Oc3cccc(Cl)c3Cl)c(Cl)cc2[nH]1
# output 0.0132

====

# test conditions: in n-propyl acetate, 318.15 K
attribute measured: solubility (mole fraction)
# answer = number (no unit)

# input Determine its reported solubility (mole fraction): CSc1nc2cc(Oc3cccc(Cl)c3Cl)c(Cl)cc2[nH]1
# output 0.039

====

# test conditions: in acetonitrile, 313.15 K
attribute measured: solubility (mole fraction)

# input Determine its reported solubility (mole fraction): CSc1nc2cc(Oc3cccc(Cl)c3Cl)c(Cl)cc2[nH]1
# output 0.0032

====

# test conditions: in n-butanol, 283.15 K
attribute measured: solubility (mole fraction)
# answer = number (no unit)

# input Determine its reported solubility (mole fraction): CSc1nc2cc(Oc3cccc(Cl)c3Cl)c(Cl)cc2[nH]1
# output 0.0246

====

# test conditions: in n-propanol, 318.15 K
attribute measured: solubility (mole fraction)

# input Determine its reported solubility (mole fraction): CSc1nc2cc(Oc3cccc(Cl)c3Cl)c(Cl)cc2[nH]1
# output 0.0301

====

# test conditions: in n-butyl acetate, 313.15 K
attribute measured: solubility (mole fraction)
# answer = number (no unit)

# input Determine its reported solubility (mole fraction): CSc1nc2cc(Oc3cccc(Cl)c3Cl)c(Cl)cc2[nH]1
# output 0.0372

====

# test conditions: in n-propanol, 293.15 K
attribute measured: solubility (mole fraction)
# answer = number (no unit)

# input Determine its reported solubility (mole fraction): CSc1nc2cc(Oc3cccc(Cl)c3Cl)c(Cl)cc2[nH]1
# output 0.0146

====

# test conditions: in 1,2-dichloroethane, 318.15 K
attribute measured: solubility (mole fraction)
# answer = number (no unit)

# input Determine its reported solubility (mole fraction): CSc1nc2cc(Oc3cccc(Cl)c3Cl)c(Cl)cc2[nH]1
# output 0.00759

====

# test conditions: in ethyl acetate, 308.15 K
attribute measured: solubility (mole fraction)
# answer = number (no unit)

# input Determine its reported solubility (mole fraction): CSc1nc2cc(Oc3cccc(Cl)c3Cl)c(Cl)cc2[nH]1
# output 0.0262

====

# test conditions: in ethyl acetate, 303.15 K
attribute measured: solubility (mole fraction)
# answer = number (no unit)

# input Determine its reported solubility (mole fraction): CSc1nc2cc(Oc3cccc(Cl)c3Cl)c(Cl)cc2[nH]1
# output 0.0232

====

# test conditions: in isopropanol, 293.15 K
attribute measured: solubility (mole fraction)

# input Determine its reported solubility (mole fraction): CSc1nc2cc(Oc3cccc(Cl)c3Cl)c(Cl)cc2[nH]1
# output 0.00411
